# test system: MAL^TIR (Homo sapiens)
# Construct: MAL (residues 79–221); 6xHis; made in house; host or cells: E. coli BL21 (DE3)
# Sequence (P58753 79-221): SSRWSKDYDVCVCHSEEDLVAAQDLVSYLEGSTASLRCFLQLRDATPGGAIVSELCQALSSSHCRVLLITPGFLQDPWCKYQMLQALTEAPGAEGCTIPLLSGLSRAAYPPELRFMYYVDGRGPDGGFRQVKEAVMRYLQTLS
# test name: T‐Surf phage library (P8 and P3) selection against MAL^TIR, four rounds, NGS read counts
# Format: binding
# condition set: P3_MAL: rank by count before grouping

{"sequence entry": "YAFTGHRHRYLVKRGV", "Rank (before)": 1445}
{"sequence entry": "ERLFSEPLNVNKDLLG", "Rank (before)": 2032}
{"sequence entry": "SSFREGLSPLAELSGK", "Rank (before)": 3174}
{"sequence entry": "YAFTRHLHRYLVQSGV", "Rank (before)": 1468}
{"sequence entry": "YAFTGHLHRYLVQHCE", "Rank (before)": 207}
{"sequence entry": "RYIMPHPQELIQKNS", "Rank (before)": 2337}
{"sequence entry": "NQWRNALTAAANLRGR", "Rank (before)": 3369}
{"sequence entry": "PNLRTNVLHYLMRTKT", "Rank (before)": 2695}
{"sequence entry": "YAFTGHLHRYLVQREPAGN", "Rank (before)": 1402}
{"sequence entry": "LSGWAFKRGSCAEYEY", "Rank (before)": 2188}
{"sequence entry": "LGKPGVTDEAQETGSL", "Rank (before)": 95}
{"sequence entry": "NQWRNALTAAANLS", "Rank (before)": 105}
{"sequence entry": "SSFRNDLWRLLELSKK", "Rank (before)": 3195}
{"sequence entry": "LKVESWRDALTKVASL", "Rank (before)": 847}
{"sequence entry": "WFWNNLKYALPLRYDP", "Rank (before)": 1266}
{"sequence entry": "RNVMSHLYQGLQNRGI", "Rank (before)": 2614}
{"sequence entry": "YLKWGDPYFWSKLRYAM", "Rank (before)": 519}
{"sequence entry": "PEKDTVRVNVIIHNIV", "Rank (before)": 2642}
{"sequence entry": "MVRVKAFHKRLKTALG", "Rank (before)": 2922}
{"sequence entry": "PNLRTNVLNYLIRTKT", "Rank (before)": 2745}
{"sequence entry": "YAFTGHLHRYLVQRDM", "Rank (before)": 1403}
{"sequence entry": "RLLKWKEALQQVHSWV", "Rank (before)": 2470}
{"sequence entry": "PKLRTKVMNYLMRTKT", "Rank (before)": 2759}
{"sequence entry": "TRFCDRRCLTVAGSSA", "Rank (before)": 3235}
{"sequence entry": "NQWRNALTAAANQSGL", "Rank (before)": 3383}
{"sequence entry": "NQWHNALAAAANLLGL", "Rank (before)": 3418}
{"sequence entry": "ESILNQLRHHLQAKDH", "Rank (before)": 544}
{"sequence entry": "KNLFNELVRKNLRTFM", "Rank (before)": 3753}
{"sequence entry": "VELAQVRKQRDAGEKV", "Rank (before)": 1644}
{"sequence entry": "PNLRTKVLDYLLRTKT", "Rank (before)": 2702}
{"sequence entry": "AFTGHLHRYLVQRGV", "Rank (before)": 408}
{"sequence entry": "SSFREGRWRLPEVSKT", "Rank (before)": 3119}
{"sequence entry": "YAFTGHLHRYLVQRAL", "Rank (before)": 149}
{"sequence entry": "SFFGINCVIICQRRS", "Rank (before)": 360}
{"sequence entry": "KTLAGLLYDHLFRLRL", "Rank (before)": 102}
{"sequence entry": "RGFLSNLGHHLQAKDH", "Rank (before)": 2401}
{"sequence entry": "PNLRTKGLNYRMRTKT", "Rank (before)": 2736}

* * *

# test system: MyD88^TIR (Homo sapiens, UniProt Q99836)
# Construct: MyD88 (residues 148–296); 6xHis; made in house; host or cells: E. coli BL21 (DE3)
# Sequence (Q99836 148-296): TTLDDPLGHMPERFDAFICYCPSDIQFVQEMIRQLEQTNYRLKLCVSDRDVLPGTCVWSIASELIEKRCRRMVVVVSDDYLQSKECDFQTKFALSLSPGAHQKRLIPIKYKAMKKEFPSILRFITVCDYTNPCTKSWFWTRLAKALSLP
# test name: T‐Surf phage library (P8 and P3) selection against MyD88^TIR, four rounds, NGS read counts
# Type: binding
# condition set: P3 library, selection against MyD88 TIR; rank by count before grouping
Label key: t means P3_MyD88 Rank (before) under 2000; f means P3_MyD88 Rank (before) of 2000 or more.

{"sequence entry": "LKVERWRQSLEKAGKL", "test system": "MyD88^TIR (Homo sapiens, UniProt Q99836)", "label": "f"}
{"sequence entry": "SSFREQLRPALKERLP", "test system": "MyD88^TIR (Homo sapiens, UniProt Q99836)", "label": "t"}
{"sequence entry": "YLKWGYPRFWDRLRCA", "test system": "MyD88^TIR (Homo sapiens, UniProt Q99836)", "label": "t"}
{"sequence entry": "NELVHVCFSNENSQVG", "test system": "MyD88^TIR (Homo sapiens, UniProt Q99836)", "label": "f"}
{"sequence entry": "LKVENWRQALEQAGKL", "test system": "MyD88^TIR (Homo sapiens, UniProt Q99836)", "label": "f"}
{"sequence entry": "KEVEGWRDALPTVASL", "test system": "MyD88^TIR (Homo sapiens, UniProt Q99836)", "label": "f"}
{"sequence entry": "YYLDPSHLRKQSGESE", "test system": "MyD88^TIR (Homo sapiens, UniProt Q99836)", "label": "t"}
{"sequence entry": "YTALTNSSFHTFLDND", "test system": "MyD88^TIR (Homo sapiens, UniProt Q99836)", "label": "t"}
{"sequence entry": "YLKWGYPRFWDRQRFP", "test system": "MyD88^TIR (Homo sapiens, UniProt Q99836)", "label": "t"}
{"sequence entry": "LKWGDPYFWSKLLYSM", "test system": "MyD88^TIR (Homo sapiens, UniProt Q99836)", "label": "f"}
{"sequence entry": "NGHESEIIKEIVDTFM", "test system": "MyD88^TIR (Homo sapiens, UniProt Q99836)", "label": "t"}
{"sequence entry": "AVAHEISNKMKIFATI", "test system": "MyD88^TIR (Homo sapiens, UniProt Q99836)", "label": "t"}
{"sequence entry": "SENYATSPWALTELVH", "test system": "MyD88^TIR (Homo sapiens, UniProt Q99836)", "label": "f"}
{"sequence entry": "NGHESEIITVIVDTIV", "test system": "MyD88^TIR (Homo sapiens, UniProt Q99836)", "label": "f"}
{"sequence entry": "YAFTGHLQRYLVQRCV", "test system": "MyD88^TIR (Homo sapiens, UniProt Q99836)", "label": "t"}
{"sequence entry": "YYLEPIYLRKQSGDFG", "test system": "MyD88^TIR (Homo sapiens, UniProt Q99836)", "label": "t"}
{"sequence entry": "YTALTNSGFHTFREM", "test system": "MyD88^TIR (Homo sapiens, UniProt Q99836)", "label": "t"}
{"sequence entry": "ERLFIETQNVNKDLIG", "test system": "MyD88^TIR (Homo sapiens, UniProt Q99836)", "label": "f"}
{"sequence entry": "LKVESWRQALAKAGRL", "test system": "MyD88^TIR (Homo sapiens, UniProt Q99836)", "label": "f"}
{"sequence entry": "LSEESWRQALEKAGKL", "test system": "MyD88^TIR (Homo sapiens, UniProt Q99836)", "label": "f"}
{"sequence entry": "YTALTNSGVHTFLDND", "test system": "MyD88^TIR (Homo sapiens, UniProt Q99836)", "label": "t"}
{"sequence entry": "SSFREGQWCLMELCKK", "test system": "MyD88^TIR (Homo sapiens, UniProt Q99836)", "label": "f"}
{"sequence entry": "EWSREQLRPALKESLP", "test system": "MyD88^TIR (Homo sapiens, UniProt Q99836)", "label": "f"}
{"sequence entry": "YALTCHLHRYLVQRGV", "test system": "MyD88^TIR (Homo sapiens, UniProt Q99836)", "label": "t"}
{"sequence entry": "SSFRERLCRLLELSKK", "test system": "MyD88^TIR (Homo sapiens, UniProt Q99836)", "label": "f"}
{"sequence entry": "YTARTNSGFHTFLDND", "test system": "MyD88^TIR (Homo sapiens, UniProt Q99836)", "label": "t"}
{"sequence entry": "KEVEGWRDALTKWRA", "test system": "MyD88^TIR (Homo sapiens, UniProt Q99836)", "label": "t"}
{"sequence entry": "SELRVEDDGSVIPLEM", "test system": "MyD88^TIR (Homo sapiens, UniProt Q99836)", "label": "f"}
{"sequence entry": "YTALPNSGFHTFRDNN", "test system": "MyD88^TIR (Homo sapiens, UniProt Q99836)", "label": "t"}
{"sequence entry": "YALTGHKHRYMVQRGV", "test system": "MyD88^TIR (Homo sapiens, UniProt Q99836)", "label": "t"}
{"sequence entry": "YLQWGYPCFWDRLRFA", "test system": "MyD88^TIR (Homo sapiens, UniProt Q99836)", "label": "t"}
{"sequence entry": "SSFREGLWRLLKLNKK", "test system": "MyD88^TIR (Homo sapiens, UniProt Q99836)", "label": "f"}
{"sequence entry": "YYLDPSHLRKQTGSLAKAFA", "test system": "MyD88^TIR (Homo sapiens, UniProt Q99836)", "label": "t"}
{"sequence entry": "YTALTNIGIHTFRDND", "test system": "MyD88^TIR (Homo sapiens, UniProt Q99836)", "label": "t"}
{"sequence entry": "YTALTYSGFHTFRDNV", "test system": "MyD88^TIR (Homo sapiens, UniProt Q99836)", "label": "t"}
{"sequence entry": "YTALTNCGFHTFRDNV", "test system": "MyD88^TIR (Homo sapiens, UniProt Q99836)", "label": "t"}
{"sequence entry": "PEKIMAAKMRLSITL", "test system": "MyD88^TIR (Homo sapiens, UniProt Q99836)", "label": "f"}
{"sequence entry": "SELREVADGSVSPLEM", "test system": "MyD88^TIR (Homo sapiens, UniProt Q99836)", "label": "f"}
{"sequence entry": "SSFSEGLWRLLELRKK", "test system": "MyD88^TIR (Homo sapiens, UniProt Q99836)", "label": "f"}
{"sequence entry": "LKWGSVFLEQTALCD", "test system": "MyD88^TIR (Homo sapiens, UniProt Q99836)", "label": "f"}
{"sequence entry": "LVALEISKKMTIFATI", "test system": "MyD88^TIR (Homo sapiens, UniProt Q99836)", "label": "f"}
{"sequence entry": "RISAFHQQLVMALKERLP", "test system": "MyD88^TIR (Homo sapiens, UniProt Q99836)", "label": "t"}
{"sequence entry": "QEVEGWRDALTKVASM", "test system": "MyD88^TIR (Homo sapiens, UniProt Q99836)", "label": "f"}
{"sequence entry": "LNVESWRKALEKAGKL", "test system": "MyD88^TIR (Homo sapiens, UniProt Q99836)", "label": "f"}
{"sequence entry": "YAFTGHLHRYLVPRGL", "test system": "MyD88^TIR (Homo sapiens, UniProt Q99836)", "label": "t"}
{"sequence entry": "RLLKWKEALHQFHSLVG", "test system": "MyD88^TIR (Homo sapiens, UniProt Q99836)", "label": "f"}
{"sequence entry": "RYIMPHPQELIQQKQP", "test system": "MyD88^TIR (Homo sapiens, UniProt Q99836)", "label": "f"}
{"sequence entry": "YAFTGHLHRYLVQREPAGN", "test system": "MyD88^TIR (Homo sapiens, UniProt Q99836)", "label": "t"}
{"sequence entry": "YNFISHLYDALRLNKIETF", "test system": "MyD88^TIR (Homo sapiens, UniProt Q99836)", "label": "t"}
{"sequence entry": "LKWGDPYFGANCVMR", "test system": "MyD88^TIR (Homo sapiens, UniProt Q99836)", "label": "t"}
{"sequence entry": "YTALTNSGFHTFRDHE", "test system": "MyD88^TIR (Homo sapiens, UniProt Q99836)", "label": "t"}
{"sequence entry": "SENYATSPWALDELVRIVEA", "test system": "MyD88^TIR (Homo sapiens, UniProt Q99836)", "label": "t"}
{"sequence entry": "AVDNETDKIQTPLKNE", "test system": "MyD88^TIR (Homo sapiens, UniProt Q99836)", "label": "t"}
{"sequence entry": "NELVHEWSSKLMSLGV", "test system": "MyD88^TIR (Homo sapiens, UniProt Q99836)", "label": "f"}
{"sequence entry": "NELVHVWSSKANSLW", "test system": "MyD88^TIR (Homo sapiens, UniProt Q99836)", "label": "f"}
{"sequence entry": "KEVKGWRDALTTVASL", "test system": "MyD88^TIR (Homo sapiens, UniProt Q99836)", "label": "f"}
{"sequence entry": "TSHLHRAWRLNELRTY", "test system": "MyD88^TIR (Homo sapiens, UniProt Q99836)", "label": "f"}
{"sequence entry": "SENYATSAWALEELVL", "test system": "MyD88^TIR (Homo sapiens, UniProt Q99836)", "label": "f"}
